tested on: Mus musculus; test: Inhibition of conditioned avoidance response in mice when administered perorally; format: functional; details: po
Below, each entry is listed with its recorded ED50.
metricName: ED50 (mg/kg)

1. Cl.Cl.OCCN1CCN(C2=Nc3ccccc3CC=C2c2ccc(Cl)cc2)CC1 ... 38.1
2. CN(C)CCCN1c2ccccc2Sc2ccc(Cl)cc21 ... 5.59
3. CN1CCN(C2=Nc3cc(Cl)ccc3Nc3ccccc32)CC1 ... 9.68
4. CN1CCN(C2=Nc3ccccc3CC=C2c2ccc(F)cc2)CC1.Cl.Cl ... 14.6

---

system: Mus musculus; assay: Antimaximal electroshock seizure activity was determined in mice when administered perorally; type: functional; conditions: po
# maps each entry to its ED50
metricName: ED50 (mg/kg)

1) CN1CCN(C2=Nc3ccc(Br)cc3CC=C2c2ccccc2)CC1.Cl.Cl ... 31.2
2) CCN1CCN(C2=Nc3ccc(C)cc3CC=C2c2ccccc2)CC1.Cl.Cl ... 70.2
3) Cc1ccc2c(c1)CC=C(c1ccccc1)C(N1CCN(CCO)CC1)=N2.O=C(O)/C=C/C(=O)O ... 103
4) CN1CCN(C2=Nc3ccc(Cl)cc3CC=C2c2ccccc2)CC1.Cl.Cl ... 89.4
5) Cc1ccc2c(c1)CC=C(c1ccccc1)C(N1CCN(C)CC1)=N2.Cl.Cl ... 86.1
6) Cl.Cl.OCCN1CCN(C2=Nc3ccc(Cl)cc3CC=C2c2ccccc2)CC1 ... 49.5

---

system: Mus musculus; assay: 3,4 -Dihydroxy phenylacetic acid (DOPAC) levels in mouse brain at 50 mg/kg dose.; format: functional
metricName: Control (%)

1) Cl.Cl.OCCN1CCN(C2=Nc3ccccc3CC=C2c2ccc(Cl)cc2)CC1 ... 289
2) Cl.Cl.OCCN1CCN(C2=Nc3ccccc3CC=C2c2ccc(Br)cc2)CC1 ... 291
3) Cl.Cl.OCCN1CCN(C2=Nc3ccccc3CC=C2c2ccc(F)cc2)CC1 ... 369
4) CCN1CCN(C2=Nc3ccccc3CC=C2c2ccc(F)cc2)CC1.Cl.Cl ... 345
5) CN1CCN(C2=Nc3ccccc3CC=C2c2ccc(Br)cc2)CC1.Cl.Cl ... 233
6) CCCN1CCN(C2=Nc3ccccc3CC=C2c2ccc(F)cc2)CC1.O=C(O)/C=C/C(=O)O ... 317
7) Fc1ccc(C2=CCc3ccccc3N=C2N2CCN(C3CCCCC3)CC2)cc1.O=C(O)/C=C/C(=O)O ... 334
8) CN1CCN(C2=Nc3ccccc3CC=C2c2ccc(F)cc2)CC1.Cl.Cl ... 306

---

tested on: Mus musculus; assay: Antiexploratory activity (EXPL) of mice determined by an antimex activity meter, 50 mg/kg of dose was administered perorally; No inhibition; type: functional; settings: route oral
metricName: inhibition in vivo at 50 mg/kg

1. Clc1ccc(C2=CCc3ccccc3N=C2N2CCCCC2)cc1 ... < 30%
2. Fc1ccc(C2=CCc3ccccc3N=C2N2CCN(Cc3ccccc3)CC2)cc1 ... < 30%
3. Clc1ccc(C2=CCc3ccccc3N=C2N2CCN(Cc3ccccc3)CC2)cc1 ... < 30%

---

test system: Mus musculus; experiment: Concentration of compound that causes catalepsy in the mice when administered perorally; assay type: functional; details: po
Collected ED50 values appear next to each entry.
metricName: ED50 (mg/kg)

1) CN1CCN(C2=Nc3ccccc3CC=C2c2ccc(F)cc2)CC1.Cl.Cl ... 21.5
2) CN(C)CCCN1c2ccccc2Sc2ccc(Cl)cc21 [CHLORPROMAZINE] ... 7.81
3) Cl.Cl.OCCN1CCN(C2=Nc3ccccc3CC=C2c2ccc(Cl)cc2)CC1 ... 66.8
